Items are presented alongside their recorded Cmax.
- procedure summary: Pharmacokinetic evaluation in rats
- Assay type: in vivo
- protocol conditions: male, Sprague-Dawley, rat, plasma, po, 3 mg/kg, 3 mg/kg by gavage, group G2, rat 6

QUERY: Requested field: Cmax. Item: N#CCNC(=O)c1ccc(-c2ccnc(Nc3ccc(N4CCOCC4)cc3)n2)cc1 [example 9, reference compound]
RESULT: 0.567 µg/mL

QUERY: Requested field: Cmax. Item: [2H]C1([2H])COCC([2H])([2H])N1c1ccc(Nc2nccc(-c3ccc(C(=O)NCC#N)cc3)n2)cc1
RESULT: 0.922 µg/mL

* * *

- procedure summary: Pharmacokinetic evaluation in rats
- Assay type: in vivo
- protocol conditions: male, Sprague-Dawley, rat, plasma, po, 3 mg/kg, 3 mg/kg by gavage, group G2, Mean of 4 rats, read-out: AUCINF_obs
Items are presented alongside their recorded AUC(0-inf).
Express your answer in ng·h/mL, writing the number without its unit.

QUERY: Requested field: AUC(0-inf). Item: N#CCNC(=O)c1ccc(-c2ccnc(Nc3ccc(N4CCOCC4)cc3)n2)cc1 [example 9, reference compound]
RESULT: 3240

Let us move to another entry and its AUC(0-inf).
QUERY: Requested field: AUC(0-inf). Item: [2H]C1([2H])COCC([2H])([2H])N1c1ccc(Nc2nccc(-c3ccc(C(=O)NCC#N)cc3)n2)cc1 [example 5]
RESULT: 5440
